Sourced from patent US11708340B2

Biological target: Human LBAT (Homo sapiens, UniProt Q14973)
Construct: Geneticin selection
Sequence (Q14973 whole entry): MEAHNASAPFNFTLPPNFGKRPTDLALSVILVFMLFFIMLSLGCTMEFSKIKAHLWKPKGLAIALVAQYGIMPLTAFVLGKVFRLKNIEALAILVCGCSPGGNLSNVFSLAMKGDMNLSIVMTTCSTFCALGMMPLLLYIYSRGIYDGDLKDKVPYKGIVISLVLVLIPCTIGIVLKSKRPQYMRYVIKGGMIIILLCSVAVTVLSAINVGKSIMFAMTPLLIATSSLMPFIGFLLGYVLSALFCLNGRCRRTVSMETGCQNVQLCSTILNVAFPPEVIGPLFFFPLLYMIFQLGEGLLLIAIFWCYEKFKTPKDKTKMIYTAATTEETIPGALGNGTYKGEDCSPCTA
Assay: LBAT (h/m) assay, human LBAT-overexpressing cells, 3H-taurocholic acid uptake
Conditions: 0.3 μM 3H-taurocholic acid and 7.5 μM cold taurocholic acid, 20 minutes, read-out: hLBAT IC50
pIC50: −log10 of the molar value.
Label rule, in plain words: pIC50 of 9 and up is 1.0, under 9 is 0.0.

> print(dat)
                                   compound  class.name
1  CCCC[C@H]1CN(c2ccc(F)cc2)c2cc(SCC)c(O/C=C/C(=O)O)cc2S(=O)(=O)N1C (single isomer, unassigned) [Example 24]         1.0
2  CCCC[C@H]1CN(c2ccccc2)c2cc(SC)c(O/C=C(\F)C(=O)O)cc2S(=O)(=O)C1 (single isomer, unassigned) [Example 5]         0.0
3  CCCC[C@H]1CN(c2ccccc2)c2cc(SCC)c(O/C=C/C(=O)O)cc2S(=O)(=O)N1C (single isomer, unassigned) [Example 18]         0.0

**Q:** Dear colleague, could you confirm whether CCC1CN(c2ccccc2)c2cc(SC)c(O/C=C/C(=O)O)cc2S(=O)(=O)C1 (stereo not shown) [Example 8] has pIC50 at or above 9?
**A:** 0.0

**Q:** pIC50 >= 9 for CCCCC1CN(c2ccccc2)c2cc(SC)c(O/C=C(\F)C(=O)O)cc2S(=O)(=O)C1 (stereo not shown) [Example 4] ?
**A:** 0.0

**Q:** Determine whether this compound has pIC50 no lower than 9: CCCCC1CN(c2ccccc2)c2cc(SCC)c(O/C=C/C(=O)O)cc2S(=O)(=O)N1C (racemic) [Example 17]
**A:** 0.0

---

Target: Human LBAT (Homo sapiens, UniProt Q14973)
Construct: Geneticin selection
Assay: LBAT (h/m) assay, human LBAT-overexpressing cells, 3H-taurocholic acid uptake
Details: 0.3 μM 3H-taurocholic acid and 7.5 μM cold taurocholic acid, 20 minutes, read-out: hLBAT IC50
recorded-metric: IC50 (nM)
Use nM as the unit, but write only the number.

Take a look at these entries with their results.
> print(dat)
                                   compound                           subject.of.test  unit.text  quantitative.readout
1  CCCC[C@@H]1CN(c2ccc(F)cc2)c2cc(SC)c(O/C=C/C(=O)O)cc2S(=O)(=O)N1C (single isomer, unassigned)  Human LBAT (Homo sapiens, UniProt Q14973)         nM                   591
2  CCCC[C@H]1CN(c2ccccc2)c2cc(SC)c(O/C=C/C(=O)O)cc2S(=O)(=O)N1C (single isomer, unassigned)  Human LBAT (Homo sapiens, UniProt Q14973)         nM                   2.2
3  CCCCC1CN(c2ccccc2)c2cc(SC)c(O/C=C(\F)C(=O)O)cc2S(=O)(=O)N1C (stereo not shown)  Human LBAT (Homo sapiens, UniProt Q14973)         nM                   1.1
4  CCCC[C@H]1CN(c2ccccc2)c2cc(SC)c(O/C=C/C(=O)O)cc2S(=O)(=O)C1 (single isomer, unassigned)  Human LBAT (Homo sapiens, UniProt Q14973)         nM                   4.8
5  CCCCC1CN(c2ccc(F)cc2)c2cc(SC)c(O/C=C/C(=O)O)cc2S(=O)(=O)C1 (racemic)  Human LBAT (Homo sapiens, UniProt Q14973)         nM                   8.7

**Q:** Note IC50 for the compound shown: CCCCC1CN(c2ccccc2)c2cc(SCC)c(O/C=C/C(=O)O)cc2S(=O)(=O)C1 (stereo not shown)
**A:** 9.5

**Q:** Provide one value: measured IC50 of CCCC[C@@H]1CN(c2ccccc2)c2cc(SC)c(O/C=C(\F)C(=O)O)cc2S(=O)(=O)C1 (single isomer, unassigned)
**A:** 1.4
